# credit: patent US12612412B2

So I've got a bunch of compounds here, and I need their EC50 values.
- Tested on: HMPV clinical isolate TN/1501/A1
- METHOD_NOTES: HMPV antiviral assay Method-B (clinical isolate TN/1501/A1 in LLC-MK2 cells, ATP-Lite readout)
- Assay type: cell-based, Human metapneumovirus (HMPV)
- CONDITION_NOTES: human metapneumovirus, LLC-MK2, 144 h, hMPV WT1501 (clinical isolate TN/1501/A1), 6 days

Quick check: EC50 on HMPV clinical isolate TN/1501/A1, item COc1cc(C(=O)NC[C@](O)(c2cc3c(c(-c4cccc(Br)c4F)n2)OC[C@]3(C)C(N)=O)C2CC2)cc2cn(C(F)F)nc12 [Example 1098] ?
< 500 nM

Requested read-out EC50, target or system HMPV clinical isolate TN/1501/A1, entry COc1cc(C(=O)NC[C@](O)(c2cc3c(c(-c4ccc5c(c4)OC(F)(F)O5)n2)OC[C@]3(C)C(N)=O)C2(F)CC2)cc2cn(C3(F)CC3)nc12 [Example 725]
< 500 nM

Lookup: EC50 / HMPV clinical isolate TN/1501/A1 / COc1cc(C(=O)NC[C@@](O)(c2cc3c(c(-c4c(F)cccc4F)n2)OC[C@]3(C)C(N)=O)C(F)(F)F)cc2cn(C3CC3)nc12 [Example 1232]
> 500 nM

Find the measured EC50: item COc1cc(C(=O)NC[C@](O)(c2cc3c(c(-c4c(F)cc(Cl)cc4F)n2)OC[C@]3(C)C(N)=O)C(F)(F)F)cc2cn(C3CC3)nc12 [Example 961] , target or system HMPV clinical isolate TN/1501/A1.
< 500 nM

Please state recorded EC50 (tested on HMPV clinical isolate TN/1501/A1) of COc1cc(C(=O)NC[C@](O)(c2cc3c(c(-c4ccc(F)cc4)n2)OC[C@]3(C)C(N)=O)C(F)(F)F)cc2cn(C3(O)CC3)nc12 [Example 821]
> 500 nM

What measured EC50 is associated with C[C@]1(C(N)=O)COc2c1cc([C@@](O)(CNC(=O)c1cc(Cl)c3nn(C4CC4)cc3c1)C1CC1)nc2-c1cc(F)c(F)cc1F [Example 1148] on HMPV clinical isolate TN/1501/A1?
< 500 nM

Report EC50 for Cc1cnc2c(Cl)cc(C(=O)NC[C@](O)(c3cc4c(c(-c5csc6c(F)cccc56)n3)OC[C@]4(C)C(N)=O)C(F)(F)F)cc2c1 [Example 601] tested on HMPV clinical isolate TN/1501/A1.
< 500 nM

Kindly state the measured EC50 obtained for COc1cc(C(=O)NC[C@](O)(c2cc3c(c(-c4cc(F)c(F)c(Cl)c4)n2)OC[C@]3(C)C(N)=O)C2CC2)cc2cn(C(F)F)nc12 [Example 788] with HMPV clinical isolate TN/1501/A1.
< 500 nM

Value wanted: EC50 (HMPV clinical isolate TN/1501/A1) of entry COc1cc(C(=O)NC[C@](O)(c2cc3c(c(-c4ccc(F)c(Cl)c4)n2)OCC3(CF)C(N)=O)C(F)(F)F)cc2cn(C3CC3)nc12 (stereo partly drawn) [Example 1050]
< 500 nM

Request body: readout EC50, system HMPV clinical isolate TN/1501/A1, query Cc1cnc2c(OC(F)F)cc(C(=O)NC[C@](O)(c3cc4c(c(-c5ccc6c(c5)OC(F)(F)O6)n3)OC[C@@]4(C(N)=O)C(F)F)C3CC3)cc2c1 [Example 1021] . Return the value.
< 500 nM

// map COc1cc(C(=O)NC[C@](O)(c2cc3c(c(-c4ccc(F)c(F)c4Cl)n2)OC[C@]3(C)C(N)=O)C(F)(F)F)cc2cn(C3(F)CC3)nc12 [Example 775] to recorded EC50 (system: HMPV clinical isolate TN/1501/A1)
< 500 nM

Tell me reported EC50 for COc1cc(C(=O)NC[C@](O)(c2cc3c(c(-c4ccc(F)c(C)c4)n2)OC[C@]3(C)C(N)=O)C(F)(F)F)cc2cn(C3CC3)nc12 [Example 636] , tested with HMPV clinical isolate TN/1501/A1.
< 500 nM
